- target_desc: NS3 (Hepatitis C virus) (UniProt A3EZJ3)
- Sequence (A3EZJ3 as listed by the source): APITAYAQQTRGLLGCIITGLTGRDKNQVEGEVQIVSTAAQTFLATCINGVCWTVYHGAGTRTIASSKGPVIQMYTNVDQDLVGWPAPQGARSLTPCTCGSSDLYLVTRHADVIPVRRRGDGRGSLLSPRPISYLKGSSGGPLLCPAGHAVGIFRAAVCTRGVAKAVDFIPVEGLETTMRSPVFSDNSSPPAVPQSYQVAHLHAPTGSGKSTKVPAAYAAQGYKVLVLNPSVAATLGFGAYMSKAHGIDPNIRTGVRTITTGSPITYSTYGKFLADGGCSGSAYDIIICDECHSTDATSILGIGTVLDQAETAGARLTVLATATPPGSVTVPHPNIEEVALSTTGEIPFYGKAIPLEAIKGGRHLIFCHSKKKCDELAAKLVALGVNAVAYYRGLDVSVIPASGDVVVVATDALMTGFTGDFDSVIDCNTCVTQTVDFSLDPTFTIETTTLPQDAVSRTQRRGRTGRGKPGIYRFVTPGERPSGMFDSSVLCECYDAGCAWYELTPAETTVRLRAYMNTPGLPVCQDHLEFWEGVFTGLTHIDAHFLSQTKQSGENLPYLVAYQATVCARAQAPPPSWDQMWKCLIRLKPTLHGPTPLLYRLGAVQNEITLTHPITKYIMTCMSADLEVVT
- protocol_notes: Inhibition of HCV NS3 protease at 100 uM
- measurement_parameters: Hepacivirus hominis
Please provide measured inhibition for the entries that follow.

Please report inhibition for the following compound: CC(C)C[C@H](NC(=O)C1Cc2ccc(OCC(=O)O)cc2N1)C(=O)NC(CC(F)F)C(=O)C(=O)O (single isomer, unassigned; diastereomer 3)
< 50%

Specify measured inhibition for CC(C)C[C@H](NC(=O)C1(C2CCCCC2)Cc2ccccc2N1)C(=O)NC(CC(F)F)C(=O)C(=O)O (single isomer, unassigned; diastereomer 2) .
< 50%

Next up:
Write down inhibition measured for item CC(C)C[C@H](NC(=O)C1(CC2CCC2)Cc2ccccc2N1)C(=O)NC(CC(F)F)C(=O)C(=O)O (single isomer, unassigned; diastereomer 2)
< 50%

Value source: ChEMBL document CHEMBL1149267
